Measured GLP-1 activity (EC50, pM, 1% HSA) values are reported for all entries that follow.
- measured-on: human GLP-1 receptor (human, UniProt P43220 24-463)
- experiment: cell-based or functional assay
Dear colleague, please return just the value in pM, with no unit written.

For reference, reported GLP-1 activity (EC50, pM, 1% HSA) for MLC126 (ligand, Moiety B (HOOC-(CH2)16-CO-gGlu-2XADO-EDA-CO-CH2) on 73C of Linker (104C of fusion polypeptide)) HGEGTFTSDVSSYLEEQAAKEFIAWLVRGGGGAQPGAQPGAQPGAQPGAQPGAQPGAQPGAQPGQEPGAQPGQEPGAQPGQEPGAQPGQEPGAQPGQEPGAQPCQEPGAQPARQGDHCPLGPGRCCRLHTVRASLEDLGWADWVLSPREVQVTMCIGACPSQFRAANLHAQIKTSLHRLKPDTVPAPCCVPASYNPMVLIQKTDTGVSLQTYDDLLAKDCHCI stands at 9.67

Form field GLP-1 activity (EC50, pM, 1% HSA), entry MLC111 (ligand, Moiety B (HOOC-(CH2)16-CO-gGlu-2XADO-EDA-CO-CH2) on 51C of Linker (82C of fusion polypeptide)) HGEGTFTSDVSSYLEEQAAKEFIAWLVRGGGGAQPGAQPGAQPGAQPGAQPGAQPGAQPGAQPGQEPGAQPGQEPGAQPGQCPGQEPGQEPGAQPGQEPGAQPGQEPGAQPARQGDHCPLGPGRCCRLHTVRASLEDLGWADWVLSPREVQVTMCIGACPSQFRAANLHAQIKTSLHRLKPDTVPAPCCVPASYNPMVLIQKTDTGVSLQTYDDLLAKDCHCI : 7.52

The value of GLP-1 activity (EC50, pM, 1% HSA) measured for the binder MLC107 (ligand, Moiety B (HOOC-(CH2)16-CO-gGlu-2XADO-EDA-CO-CH2) on 25C of Linker (56C of fusion polypeptide)) HGEGTFTSDVSSYLEEQAAKEFIAWLVRGGGGAQPGAQPGAQPGAQPGAQPGAQPCQAPGAQPGQEPGAQPGQEPGAQPGQEPGAQPGQEPGAQPGQEPGAQPGQEPGAQPARQGDHCPLGPGRCCRLHTVRASLEDLGWADWVLSPREVQVTMCIGACPSQFRAANLHAQIKTSLHRLKPDTVPAPCCVPASYNPMVLIQKTDTGVSLQTYDDLLAKDCHCI turned out to be 39.9

Record MLC093 (ligand, Moiety B (HOOC-(CH2)16-CO-gGlu-2XADO-EDA-CO-CH2) on 33C of Linker (64C of fusion polypeptide)) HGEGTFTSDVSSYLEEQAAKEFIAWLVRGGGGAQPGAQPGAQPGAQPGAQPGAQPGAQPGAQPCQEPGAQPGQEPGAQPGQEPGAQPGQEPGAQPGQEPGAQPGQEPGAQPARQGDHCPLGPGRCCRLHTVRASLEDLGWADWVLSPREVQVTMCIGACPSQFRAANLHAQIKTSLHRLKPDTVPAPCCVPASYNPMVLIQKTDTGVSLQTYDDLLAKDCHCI , field GLP-1 activity (EC50, pM, 1% HSA): 27.3

MLC122 (ligand, Moiety B (HOOC-(CH2)16-CO-gGlu-2XADO-EDA-CO-CH2) on 5C of Linker (36C of fusion polypeptide)) HGEGTFTSDVSSYLEEQAAKEFIAWLVRGGGGAQPCQAPGAQPGAQPGAQPGAQPGAQPGAQPGQEPGAQPGQEPGAQPGQEPGAQPGQEPGAQPGQEPGAQPGQEPGAQPARQGDHCPLGPGRCCRLHTVRASLEDLGWADWVLSPREVQVTMCIGACPSQFRAANLHAQIKTSLHRLKPDTVPAPCCVPASYNPMVLIQKTDTGVSLQTYDDLLAKDCHCI yielded GLP-1 activity (EC50, pM, 1% HSA) of 434
